Test system: HCT-116
Assay Overview: Cytotoxicity against CD133 positive human HCT116 cells
Format: functional, cell-based
Form field: pIC50 (one value per entry).
Lab note: report pIC50 as minus log10 of the concentration in molar units, number only.

Some compounds with known pIC50 results, for comparison:
Smiles Notation	pIC50
CC(=O)O[C@@]12CO[C@@H]1C[C@H](O)[C@@]1(C)C(=O)[C@H](OC(=O)N(C)C)C3=C(C)[C@@H](OC(=O)[C@H](O)[C@H](C=C(C)C)NC(=O)OC(C)(C)C)C[C@@](O)([C@@H](OC(=O)c4cccc(C)c4)[C@H]21)C3(C)C	9.62
CC(=O)O[C@@]12CO[C@@H]1C[C@H](O)[C@@]1(C)C(=O)[C@H](OC(=O)C3CC3)C3=C(C)[C@@H](OC(=O)[C@H](O)[C@H](C=C(C)C)NC(=O)OC(C)(C)C)C[C@@](O)([C@@H](OC(=O)c4ccccc4)[C@H]21)C3(C)C	9.55

stdin: I have this compound here, CC(=O)O[C@@]12CO[C@@H]1C[C@H](O)[C@@]1(C)C(=O)[C@H](OC(=O)N(C)C)C3=C(C)[C@@H](OC(=O)[C@H](O)[C@H](C=C(F)F)NC(=O)OC(C)(C)C)C[C@@](O)([C@@H](OC(=O)c4ccccc4)[C@H]21)C3(C)C , and I need its recorded pIC50.
stdout: 9.85
